# reported OD450; entries follow
Test system: T1, human MSLN-R2-his protein (human, UniProt Q13421 391-486)
T1 construct: it is put last here; also called human MSLN-R2 protein; hMSLN-R2-his; not shown: His tag
T1 sequence (Q13421 other isoform, or with tags, fused parts or gaps): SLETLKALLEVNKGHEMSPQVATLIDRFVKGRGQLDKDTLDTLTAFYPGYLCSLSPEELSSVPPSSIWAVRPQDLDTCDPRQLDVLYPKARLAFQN
Protocol summary: ELISA on coated antigen, antibody 0.002 nM
The response must be a number in OD with no trailing unit.

# example entries with known answers
| Binder | Reported metric | Assay result |
| --- | --- | --- |
| S009-F7.61.21 (antibody, human IgG1, kappa, V domains shown, Human-murine chimeric antibody, human IgG1 heavy and kappa light constant regions) VH: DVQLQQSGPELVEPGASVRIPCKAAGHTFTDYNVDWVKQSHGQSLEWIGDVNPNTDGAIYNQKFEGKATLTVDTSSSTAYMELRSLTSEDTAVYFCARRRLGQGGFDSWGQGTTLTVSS VL: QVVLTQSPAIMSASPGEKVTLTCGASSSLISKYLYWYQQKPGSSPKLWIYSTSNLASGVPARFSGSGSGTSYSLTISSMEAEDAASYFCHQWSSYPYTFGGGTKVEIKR | OD450 | 0.05 |
| S009-F7.30.5 (antibody, human IgG1, kappa, V domains shown, Human-murine chimeric antibody, human IgG1 heavy and kappa light constant regions) VH: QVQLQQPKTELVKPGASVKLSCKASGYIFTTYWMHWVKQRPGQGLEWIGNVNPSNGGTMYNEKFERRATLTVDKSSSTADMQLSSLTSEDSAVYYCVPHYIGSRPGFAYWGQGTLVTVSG VL: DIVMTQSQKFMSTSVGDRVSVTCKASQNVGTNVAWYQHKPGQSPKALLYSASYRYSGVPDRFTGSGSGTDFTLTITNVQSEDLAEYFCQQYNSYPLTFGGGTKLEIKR | OD450 | 0.05 |

Entry under review: S009-F7.67.12 (antibody, human IgG1, kappa, V domains shown, Human-murine chimeric antibody, human IgG1 heavy and kappa light constant regions) VH: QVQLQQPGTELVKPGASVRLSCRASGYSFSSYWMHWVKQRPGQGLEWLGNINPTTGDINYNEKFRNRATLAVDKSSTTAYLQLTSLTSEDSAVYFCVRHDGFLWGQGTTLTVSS VL: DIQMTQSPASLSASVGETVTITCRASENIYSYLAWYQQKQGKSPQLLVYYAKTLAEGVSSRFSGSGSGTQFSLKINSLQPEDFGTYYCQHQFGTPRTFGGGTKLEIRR . Reported OD450?
0.05
